Listed below are molecules with Ki for Sodium-dependent noradrenaline transporter (Homo sapiens), each taken from published literature.

Some molecules with recorded Ki:
>  <molecule>
CC(=O)c1ccc(-c2ccc(F)cc2CO[C@H]2CCNC2)cc1

>  <Ki>
6870 nM

$$$$
>  <molecule>
O=C(O)/C=C/C(=O)O.c1ccc(CCCOc2ncccc2OC[C@H]2CCCNC2)cc1

>  <Ki>
210 nM

$$$$
>  <molecule>
CCC[C@@H](Oc1cccc(C)c1C)[C@@H]1CCNC1

>  <Ki>
≤ 10 nM

$$$$

Send back Sodium-dependent noradrenaline transporter (Homo sapiens) Ki of c1ccc2c(O[C@@H](C3CC3)[C@H]3CCNC3)cccc2c1 only.
≤ 10 nM

Name the recorded Ki of N[C@H]1CCN(c2nc(-c3c(F)cccc3F)c3ccccc3n2)C1 , assay system Sodium-dependent noradrenaline transporter (Homo sapiens).
12.2 nM

Consider the molecule CNCCNc1nccc(-c2cccc(O[C@@H](CCNC)c3ccccc3)c2)n1 tested on Sodium-dependent noradrenaline transporter (Homo sapiens); state its Ki.
≥ 1000 nM

---

Sodium-dependent noradrenaline transporter (Homo sapiens) pKi, compiled from various sources.
pKi: −log10 of the molar value.

>  <molecule>
Cc1ccc(-c2nc(N3CCN(C)CC3)nc3ccccc23)cc1

>  <pKi>
7.11

$$$$
>  <molecule>
Cc1cccc(O[C@H](C(C)C)[C@H]2CCNC2)c1C

>  <pKi>
≥ 8.00

$$$$
>  <molecule>
CCOc1ccc(-n2nc3c(N(C)CC(O)c4ccccc4)nnc(C)c3c2C)c(F)c1 (stereo not drawn)

>  <pKi>
< 6.00

$$$$
>  <molecule>
C[C@H]1CNCCN1c1nc(-c2cccc(F)c2F)c2ccccc2n1

>  <pKi>
7.72

$$$$
>  <molecule>
CC(C)[C@H](Oc1c(Cl)ccc(Cl)c1Cl)[C@H]1CCNC1

>  <pKi>
≥ 8.00

$$$$

Supply reported pKi belonging to this molecule: N=C(N)NCc1ccc(CCF)cc1
4.73

Find the measured pKi of CC[C@@H](Oc1cccc2ccccc12)[C@H]1CCNC1 and report it.
≥ 8.00

Input CCC[C@H](Oc1ccc(Cl)c(Cl)c1)[C@H]1CCNC1 , output reported pKi.
≥ 8.00

Answer with reported pKi of Cc1ccccc1O[C@@H](C1CC1)[C@H]1CCNC1
≥ 8.00

---

# Ki against Sodium-dependent noradrenaline transporter (Homo sapiens, UniProt P23975), merged from multiple literature sources
Mark each entry y if its Ki sits below 20 nM, and n for all others.

See these solved cases before continuing.
>  <compound>
COc1cc(Cl)ccc1Oc1cc(Cl)ccc1OC[C@H]1CCCNC1

>  <label-class>
y

$$$$
>  <compound>
CC(C)CC(Oc1ccc(Cl)c(F)c1)C1CCNC1 (centres unmarked)

>  <label-class>
y

$$$$
>  <compound>
Cc1nnc(N(C)C)c2nn(-c3cccc(OC4CNCc5ccccc54)c3)c(C)c12 (centres unmarked)

>  <label-class>
n

$$$$
>  <compound>
CCOc1ncccc1-c1ccccc1CO[C@H]1CCNC1

>  <label-class>
n

$$$$

Okay, now this compound:
Threshold test, Ki < 20 nM: N#Cc1ccc(Oc2ncccc2OC[C@H]2CCCNC2)cc1F
n

---

Collected pKi for Sodium-dependent noradrenaline transporter (Homo sapiens, UniProt P23975) across several studies; compounds listed below.
Formally, pKi is defined as -log10 of the concentration c, with c in mol/L.

Here's what some known entries look like.
>  <compound-structure>
C[C@H]1CNCCN1c1nc(-c2cccc(F)c2F)c2ccc(F)cc2n1

>  <recorded-number>
7.67

$$$$
>  <compound-structure>
CC(=O)c1ccccc1-c1ccccc1CO[C@H]1CCNC1

>  <recorded-number>
5.60

$$$$
>  <compound-structure>
N#Cc1ccc(-c2ccc(F)cc2CO[C@H]2CCNC2)cc1

>  <recorded-number>
5.92

$$$$
>  <compound-structure>
Fc1cccc(F)c1Oc1ncccc1OC[C@H]1CCCNC1.O=C(O)/C=C/C(=O)O

>  <recorded-number>
8.70

$$$$
>  <compound-structure>
Cc1cc(F)ccc1-c1nc(N2CCNCC2)nc2cc(F)ccc12

>  <recorded-number>
7.48

$$$$
>  <compound-structure>
COc1cc(Cl)ccc1Oc1cc(C(F)(F)F)ccc1OC[C@H]1CCCNC1

>  <recorded-number>
6.60

$$$$

GET pKi where system = Sodium-dependent noradrenaline transporter (Homo sapiens, UniProt P23975) and item = COc1ccc(-c2ccc(F)cc2CO[C@H]2CCNC2)cc1OC
5.72

Param request: pKi | system Sodium-dependent noradrenaline transporter (Homo sapiens, UniProt P23975) | item CC[C@H]1CNCCN1c1nc(-c2c(F)cccc2F)c2ccccc2n1
7.50
